Test system: 885512-296-R-J2-PDC complex spheroid growth, % test/control
Experiment: Anticancer human tumor 885512-296-R-J2-PDC patient-derived breast carcinoma cell line growth inhibition [Asc]
Conditions: second compound 0.01 µM; first compound 0.01 µM; stronger effect = lower value
Source text: Multicellular complex tumor spheroid response to apoptosis pathway targeting inhibitors Alrizomadlin, Pelcitoclax, and Dasminapant in combination with a variety of drugs and investigational agents in selected tumor cell lines […] Compounds. […] If the clinical Cmax for an agent had not been determined, the highest concentration tested was 10 microM. […]
Doc: threshold 80% (exclusive). Items with viability, T/C beneath it return Fulfilled; others return Not fulfilled.

Exam item: Strictly below 80% in viability, T/C? Cn1ncnc1[C@H]1c2n[nH]c(=O)c3cc(F)cc(c23)N[C@@H]1c1ccc(F)cc1 + CNC(C)C(=O)NC1CN(S(=O)(=O)c2cccc(S(=O)(=O)N3CCC4CCC(C(=O)NC(c5ccccc5)c5ccccc5)N4C(=O)C(NC(=O)C(C)NC)C3)c2)CCC2CCC(C(=O)NC(c3ccccc3)c3ccccc3)N2C1=O
Marked response: Fulfilled

Exam item: Input COc1c(OCCCN2CCOCC2)ccc2c3n(c(=NC(=O)c4cnc(N)nc4)nc12)CCN3 + CNC(C)C(=O)NC1CN(S(=O)(=O)c2cccc(S(=O)(=O)N3CCC4CCC(C(=O)NC(c5ccccc5)c5ccccc5)N4C(=O)C(NC(=O)C(C)NC)C3)c2)CCC2CCC(C(=O)NC(c3ccccc3)c3ccccc3)N2C1=O ; condition: viability, T/C strictly below 80%. Does it hold?
Marked response: Not fulfilled

Exam item: For NC1CCC(NC2CC2c2ccccc2)CC1 (stereo not given) + CNC(C)C(=O)NC1CN(S(=O)(=O)c2cccc(S(=O)(=O)N3CCC4CCC(C(=O)NC(c5ccccc5)c5ccccc5)N4C(=O)C(NC(=O)C(C)NC)C3)c2)CCC2CCC(C(=O)NC(c3ccccc3)c3ccccc3)N2C1=O , is the recorded viability, T/C below the cut-off of 80%?
Marked response: Not fulfilled

Exam item: Given the entry CCN1CCN(Cc2ccc(Nc3ncc(F)c(-c4cc(F)c5nc(C)n(C(C)C)c5c4)n3)nc2)CC1 + CNC(C)C(=O)NC1CN(S(=O)(=O)c2cccc(S(=O)(=O)N3CCC4CCC(C(=O)NC(c5ccccc5)c5ccccc5)N4C(=O)C(NC(=O)C(C)NC)C3)c2)CCC2CCC(C(=O)NC(c3ccccc3)c3ccccc3)N2C1=O , would its reported viability, T/C be below 80%?
Marked response: Not fulfilled

###

tested on: 885512-296-R-J2-PDC complex spheroid growth, % test/control; assay: Anticancer human tumor 885512-296-R-J2-PDC cell line growth inhibition [Asc]; settings: second compound 1 µM; first compound 0.3 µM; active means viability on the fitted dose curve at most 10% of control; inactive means the rest;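 note: spheroids exposed to compounds for seven days; 100% = DMSO vehicle control wells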
Can you answer with just one of these options? y (active), n (inactive)

Known results for compounds:
compound | category_label
NC(=O)C(=Cn1cnc(-c2cc(C(F)(F)F)cc(C(F)(F)F)c2)n1)c1cncnc1 + CNC(C)C(=O)NC1CN(S(=O)(=O)c2cccc(S(=O)(=O)N3CCC4CCC(C(=O)NC(c5ccccc5)c5ccccc5)N4C(=O)C(NC(=O)C(C)NC)C3)c2)CCC2CCC(C(=O)NC(c3ccccc3)c3ccccc3)N2C1=O | y
NC(=O)C(=Cn1cnc(-c2cc(C(F)(F)F)cc(C(F)(F)F)c2)n1)c1cncnc1 + Cc1c(S(C)(=O)=O)c(-c2cc(F)cc(N3CCN(c4ccc(NS(=O)(=O)c5ccc(NC(CCN6CCC(C(=O)OCCCP(=O)(O)O)CC6)CSc6ccccc6)c(S(=O)(=O)C(F)(F)F)c5)cc4)CC3)c2)c(-c2ccc(Cl)cc2)n1C(C)C | y
CCN1C(C(=O)NC23CCC(C(=O)O)(CC2)CC3)C(c2cccc(Cl)c2F)C2(C(=O)Nc3cc(Cl)ccc32)C12CCCCC2 (stereo unspecified) + CNC(C)C(=O)NC1CN(S(=O)(=O)c2cccc(S(=O)(=O)N3CCC4CCC(C(=O)NC(c5ccccc5)c5ccccc5)N4C(=O)C(NC(=O)C(C)NC)C3)c2)CCC2CCC(C(=O)NC(c3ccccc3)c3ccccc3)N2C1=O | n
CCN1C(C(=O)NC23CCC(C(=O)O)(CC2)CC3)C(c2cccc(Cl)c2F)C2(C(=O)Nc3cc(Cl)ccc32)C12CCCCC2 (stereo unspecified) + Cc1c(S(C)(=O)=O)c(-c2cc(F)cc(N3CCN(c4ccc(NS(=O)(=O)c5ccc(NC(CCN6CCC(C(=O)OCCCP(=O)(O)O)CC6)CSc6ccccc6)c(S(=O)(=O)C(F)(F)F)c5)cc4)CC3)c2)c(-c2ccc(Cl)cc2)n1C(C)C | n
Cc1nc(N2CCC3(CC2)COC(C)C3N)c(CO)nc1Sc1ccnc(N)c1Cl (stereo unspecified) + CNC(C)C(=O)NC1CN(S(=O)(=O)c2cccc(S(=O)(=O)N3CCC4CCC(C(=O)NC(c5ccccc5)c5ccccc5)N4C(=O)C(NC(=O)C(C)NC)C3)c2)CCC2CCC(C(=O)NC(c3ccccc3)c3ccccc3)N2C1=O | n

Now turn to the next compound.
Exam item: Given Cc1nc(N2CCC3(CC2)COC(C)C3N)c(CO)nc1Sc1ccnc(N)c1Cl (stereo unspecified) + Cc1c(S(C)(=O)=O)c(-c2cc(F)cc(N3CCN(c4ccc(NS(=O)(=O)c5ccc(NC(CCN6CCC(C(=O)OCCCP(=O)(O)O)CC6)CSc6ccccc6)c(S(=O)(=O)C(F)(F)F)c5)cc4)CC3)c2)c(-c2ccc(Cl)cc2)n1C(C)C , state the outcome it received in this test.
Marked response: n

###

test system: 885512-296-R-J2-PDC complex spheroid growth, % test/control; test: Anticancer human tumor 885512-296-R-J2-PDC cell line growth inhibition [Asc]; details: second compound 0.316 µM; first compound 0.0316 µM; stronger effect = lower value;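 note: spheroids exposed to compounds for seven days; 100% = DMSO vehicle control wells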
// reported viability, T/C for each item listed
Give the number; % is assumed, so skip it.

Some solved cases for reference:
molecule | viability, T/C, %
C=C(F)C(=O)N1CCN(c2nc(OCC3CCCN3C)nc3c2CCN(c2cccc4cccc(Cl)c24)C3)CC1CC#N (stereo not given) + Cc1c(S(C)(=O)=O)c(-c2cc(F)cc(N3CCN(c4ccc(NS(=O)(=O)c5ccc(NC(CCN6CCC(C(=O)OCCCP(=O)(O)O)CC6)CSc6ccccc6)c(S(=O)(=O)C(F)(F)F)c5)cc4)CC3)c2)c(-c2ccc(Cl)cc2)n1C(C)C | 76.3
O=C(c1ccc(F)c(F)c1Nc1ccc(I)cc1F)N1CC(O)([C@@H]2CCCCN2)C1 + Cc1c(S(C)(=O)=O)c(-c2cc(F)cc(N3CCN(c4ccc(NS(=O)(=O)c5ccc(NC(CCN6CCC(C(=O)OCCCP(=O)(O)O)CC6)CSc6ccccc6)c(S(=O)(=O)C(F)(F)F)c5)cc4)CC3)c2)c(-c2ccc(Cl)cc2)n1C(C)C | 63.6
O=C(c1cc(Cc2n[nH]c(=O)c3ccccc23)ccc1F)N1CCN(C(=O)C2CC2)CC1 + Cc1c(S(C)(=O)=O)c(-c2cc(F)cc(N3CCN(c4ccc(NS(=O)(=O)c5ccc(NC(CCN6CCC(C(=O)OCCCP(=O)(O)O)CC6)CSc6ccccc6)c(S(=O)(=O)C(F)(F)F)c5)cc4)CC3)c2)c(-c2ccc(Cl)cc2)n1C(C)C | 96.4

Exam item: Give 885512-296-R-J2-PDC complex spheroid growth, % test/control viability, T/C for CCN1CCN(Cc2ccc(Nc3ncc(F)c(-c4cc(F)c5nc(C)n(C(C)C)c5c4)n3)nc2)CC1 + Cc1c(S(C)(=O)=O)c(-c2cc(F)cc(N3CCN(c4ccc(NS(=O)(=O)c5ccc(NC(CCN6CCC(C(=O)OCCCP(=O)(O)O)CC6)CSc6ccccc6)c(S(=O)(=O)C(F)(F)F)c5)cc4)CC3)c2)c(-c2ccc(Cl)cc2)n1C(C)C
Marked response: 83.3

Exam item: Notebook entry, 885512-296-R-J2-PDC complex spheroid growth, % test/control assay: viability, T/C of O=C(c1ccc(F)c(F)c1Nc1ccc(I)cc1F)N1CC(O)([C@@H]2CCCCN2)C1 + CNC(C)C(=O)NC1CN(S(=O)(=O)c2cccc(S(=O)(=O)N3CCC4CCC(C(=O)NC(c5ccccc5)c5ccccc5)N4C(=O)C(NC(=O)C(C)NC)C3)c2)CCC2CCC(C(=O)NC(c3ccccc3)c3ccccc3)N2C1=O = ?
Marked response: 82.5

###

Listed compounds paired with reported viability, T/C
system: 885512-296-R-J2-PDC complex spheroid growth, % test/control; experiment: Anticancer human tumor 885512-296-R-J2-PDC cell line growth inhibition [Asc]; details: second compound 0.1 µM; first compound 0.0316 µM; stronger effect = lower value;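 note: spheroids exposed to compounds for seven days; 100% = DMSO vehicle control wells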
The reply should be a number in %, with the unit left off.

Observe how each entry below is paired with its result.
compound | viability, T/C (%)
Cn1ncnc1[C@H]1c2n[nH]c(=O)c3cc(F)cc(c23)N[C@@H]1c1ccc(F)cc1 + CNC(C)C(=O)NC1CN(S(=O)(=O)c2cccc(S(=O)(=O)N3CCC4CCC(C(=O)NC(c5ccccc5)c5ccccc5)N4C(=O)C(NC(=O)C(C)NC)C3)c2)CCC2CCC(C(=O)NC(c3ccccc3)c3ccccc3)N2C1=O | 42.9
CNC(C)C(=O)NC1CN(S(=O)(=O)c2cccc(S(=O)(=O)N3CCC4CCC(C(=O)NC(c5ccccc5)c5ccccc5)N4C(=O)C(NC(=O)C(C)NC)C3)c2)CCC2CCC(C(=O)NC(c3ccccc3)c3ccccc3)N2C1=O (centres undefined) + Cc1c(S(C)(=O)=O)c(-c2cc(F)cc(N3CCN(c4ccc(NS(=O)(=O)c5ccc(NC(CCN6CCC(C(=O)OCCCP(=O)(O)O)CC6)CSc6ccccc6)c(S(=O)(=O)C(F)(F)F)c5)cc4)CC3)c2)c(-c2ccc(Cl)cc2)n1C(C)C | 89.2
C=CC(=O)N1CCN(c2nc(=O)n(-c3c(C)ccnc3C(C)C)c3nc(-c4c(O)cccc4F)c(F)cc23)C(C)C1 (centres undefined) + CNC(C)C(=O)NC1CN(S(=O)(=O)c2cccc(S(=O)(=O)N3CCC4CCC(C(=O)NC(c5ccccc5)c5ccccc5)N4C(=O)C(NC(=O)C(C)NC)C3)c2)CCC2CCC(C(=O)NC(c3ccccc3)c3ccccc3)N2C1=O | 111

Turning to the following compound.
Exam item: // lookup viability, T/C for C=C(F)C(=O)N1CCN(c2nc(OCC3CCCN3C)nc3c2CCN(c2cccc4cccc(Cl)c24)C3)CC1CC#N (centres undefined) + CNC(C)C(=O)NC1CN(S(=O)(=O)c2cccc(S(=O)(=O)N3CCC4CCC(C(=O)NC(c5ccccc5)c5ccccc5)N4C(=O)C(NC(=O)C(C)NC)C3)c2)CCC2CCC(C(=O)NC(c3ccccc3)c3ccccc3)N2C1=O
Marked response: 105
